Target: hα4 and β1 integrins (Homo sapiens, UniProt P05556+P13612)
Sequence (P13612 34-1032): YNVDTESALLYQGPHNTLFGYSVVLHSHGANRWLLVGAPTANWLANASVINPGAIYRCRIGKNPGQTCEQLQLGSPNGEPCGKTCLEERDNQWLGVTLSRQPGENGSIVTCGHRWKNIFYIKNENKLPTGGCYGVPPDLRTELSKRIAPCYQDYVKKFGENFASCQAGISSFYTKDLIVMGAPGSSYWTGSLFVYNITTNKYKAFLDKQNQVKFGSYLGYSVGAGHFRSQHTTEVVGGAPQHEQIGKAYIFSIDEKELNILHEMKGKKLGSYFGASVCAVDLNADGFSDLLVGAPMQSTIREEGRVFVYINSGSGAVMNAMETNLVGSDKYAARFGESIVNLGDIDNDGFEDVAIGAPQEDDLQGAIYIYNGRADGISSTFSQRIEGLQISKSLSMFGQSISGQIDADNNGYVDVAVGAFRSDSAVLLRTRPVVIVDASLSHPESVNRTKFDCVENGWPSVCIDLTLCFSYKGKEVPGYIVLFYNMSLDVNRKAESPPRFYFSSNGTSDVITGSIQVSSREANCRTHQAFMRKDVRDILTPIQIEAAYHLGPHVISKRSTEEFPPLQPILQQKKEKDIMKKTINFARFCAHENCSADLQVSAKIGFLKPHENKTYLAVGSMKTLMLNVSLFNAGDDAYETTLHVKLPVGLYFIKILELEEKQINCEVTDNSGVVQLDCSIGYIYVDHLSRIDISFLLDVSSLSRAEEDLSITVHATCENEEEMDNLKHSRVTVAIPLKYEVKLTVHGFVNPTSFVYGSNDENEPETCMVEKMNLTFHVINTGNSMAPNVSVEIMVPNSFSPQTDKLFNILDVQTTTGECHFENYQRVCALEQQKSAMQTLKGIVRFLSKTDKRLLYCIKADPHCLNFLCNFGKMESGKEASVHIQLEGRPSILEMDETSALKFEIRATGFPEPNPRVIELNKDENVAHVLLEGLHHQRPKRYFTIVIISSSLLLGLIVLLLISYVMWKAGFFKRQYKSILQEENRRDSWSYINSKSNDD
Sequence (P05556 21-798): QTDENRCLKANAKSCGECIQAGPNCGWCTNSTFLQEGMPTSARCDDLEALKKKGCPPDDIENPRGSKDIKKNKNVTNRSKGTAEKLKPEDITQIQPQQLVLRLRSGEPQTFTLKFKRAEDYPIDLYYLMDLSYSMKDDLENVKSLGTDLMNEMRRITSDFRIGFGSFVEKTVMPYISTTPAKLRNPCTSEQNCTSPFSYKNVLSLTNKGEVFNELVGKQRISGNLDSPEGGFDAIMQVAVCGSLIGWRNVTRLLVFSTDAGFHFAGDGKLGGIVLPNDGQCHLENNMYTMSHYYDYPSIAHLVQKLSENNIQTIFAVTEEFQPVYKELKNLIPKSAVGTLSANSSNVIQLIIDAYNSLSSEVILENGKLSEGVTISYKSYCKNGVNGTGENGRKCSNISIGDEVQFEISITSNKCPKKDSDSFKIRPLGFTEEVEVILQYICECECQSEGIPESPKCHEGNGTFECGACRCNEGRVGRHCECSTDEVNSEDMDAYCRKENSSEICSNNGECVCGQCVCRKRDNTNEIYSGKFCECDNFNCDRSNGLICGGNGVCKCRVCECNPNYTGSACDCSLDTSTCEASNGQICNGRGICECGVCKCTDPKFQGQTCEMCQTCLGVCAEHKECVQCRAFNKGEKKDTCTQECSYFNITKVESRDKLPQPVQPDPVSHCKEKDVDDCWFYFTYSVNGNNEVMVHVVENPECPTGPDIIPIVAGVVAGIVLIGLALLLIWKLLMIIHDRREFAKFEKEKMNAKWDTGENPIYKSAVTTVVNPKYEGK
Assay: In vitro inhibition of binding between CHO cells expressing hα4 and β1 integrins and Eu3+-hVCAM-1 D1D7-IgG
Settings: in the presence of 3% human serum albumin (HSA final concentration 3%)
experimental-readout: IC50 (nM)

Worked cases, answers included:
smiles-repr	target-system	value
COC[C@@H]1C[C@H](F)CN1[C@H]1C[C@@H](CO[C@H]2CC[C@H](C(=O)O)CC2)N(C(=O)Cc2cc(Cl)c(NC(=O)c3cn(C)c4ccccc34)cc2Cl)C1	hα4 and β1 integrins (Homo sapiens, UniProt P05556+P13612)	15
CC1CN([C@H]2C[C@@H](CO[C@H]3CC[C@H](C(=O)O)CC3)N(C(=O)Cc3cc(Cl)c(NC(=O)c4coc5ccccc45)cc3F)C2)C1	hα4 and β1 integrins (Homo sapiens, UniProt P05556+P13612)	21
O=C(Nc1cc(F)c(CC(=O)N2C[C@@H](N3CCN(CC(F)(F)F)CC3)C[C@H]2CO[C@H]2CC[C@H](C(=O)O)CC2)cc1Cl)c1c[nH]c2ccccc12	hα4 and β1 integrins (Homo sapiens, UniProt P05556+P13612)	1.8

(a) C[C@@H]1CN([C@H]2C[C@@H](CO[C@H]3CC[C@H](C(=O)O)CC3)N(C(=O)Cc3cc(Cl)c(NC(=O)c4c[nH]c5ccccc45)cc3F)C2)C[C@H](C)O1
(b) O=C(Nc1cc(F)c(CC(=O)N2C[C@@H](N3CCC(N4CCOCC4)CC3)C[C@H]2CO[C@H]2CC[C@H](C(=O)O)CC2)cc1Cl)c1csc2ccccc12
Between a and b , whose measured IC50 reads higher? // return label of chosen record b

====

Assay: Solubility test in first and second liquid of the Japanese Pharmacopoeia
Details: first liquid of the Japanese Pharmacopoeia (JP1), pH 1.2, simulated gastric fluid, Solubility, First liquid of Japanese Pharmacopoeia (μg/mL), JP1, pH=1.2
experimental-readout: solubility (µg/mL)

smiles-repr	experimental-readout	value
C[C@@H]1CN([C@H]2C[C@@H](CO[C@H]3CC[C@H](C(=O)O)CC3)N(C(=O)Cc3ccc(NC(=O)c4coc5ccccc45)c(Cl)c3)C2)C[C@H](C)O1	solubility	1200
C[C@@H]1CN([C@H]2C[C@@H](CO[C@H]3CC[C@H](C(=O)O)CC3)N(C(=O)Cc3cc(Cl)c(NC(=O)c4cn(C)c5ccccc45)cc3F)C2)C[C@H](C)N1CCF	solubility	1400

====

Biological target: hα4 and β1 integrins (Homo sapiens, UniProt P05556+P13612)
Assay: In vitro inhibition of binding between CHO cells expressing hα4 and β1 integrins and Eu3+-hVCAM-1 D1D7-IgG
Conditions: in the presence of 3% human serum albumin (HSA final concentration 3%)
experimental-readout: IC50 (nM)

compound	scale-unit	IC50
CCN1CCN([C@H]2C[C@@H](CO[C@H]3CC[C@H](C(=O)O)CC3)N(C(=O)Cc3cc(Cl)c(NC(=O)c4csc5ccccc45)cc3F)C2)CC1=O	nM	9.1

(P) CN(C)C1CCN([C@H]2C[C@@H](CO[C@H]3CC[C@H](C(=O)O)CC3)N(C(=O)Cc3cc(Cl)c(NC(=O)c4cn(C)c5ccccc45)cc3F)C2)CC1
(Q) CC(C)N1CCN([C@H]2C[C@@H](CO[C@H]3CC[C@H](C(=O)O)CC3)N(C(=O)Cc3cc(Cl)c(NC(=O)c4cn(C)c5ccccc45)cc3Cl)C2)CC1
(R) C[C@@H]1CN([C@H]2C[C@@H](CO[C@H]3CC[C@H](C(=O)O)CC3)N(C(=O)Cc3cc(Cl)c(NC(=O)c4csc5ccccc45)cc3Cl)C2)C[C@H](C)O1
(S) C[C@@H]1CN([C@H]2C[C@@H](CO[C@H]3CC[C@H](C(=O)O)CC3)N(C(=O)Cc3cc(Cl)c(NC(=O)c4c[nH]c5ccccc45)cc3Cl)C2)C[C@H](C)O1
Please produce an ascending ranking of these compounds based on IC50. // ordering of labels required in reply S, P, Q, R
(S: 2.3 nM, P: 5.2 nM, Q: 9.5 nM, R: 18 nM)

(A) O=C(Nc1ccc(CC(=O)N2C[C@@H](N3CCN(CC(F)(F)F)CC3)C[C@H]2CO[C@H]2CC[C@H](C(=O)O)CC2)cc1Cl)c1coc2ccccc12
(B) CS(=O)(=O)N1CCN([C@H]2C[C@@H](CO[C@H]3CC[C@H](C(=O)O)CC3)N(C(=O)Cc3cc(Cl)c(NC(=O)c4coc5ccccc45)cc3F)C2)CC1
Between A and B , whose measured IC50 reads higher? // return label of chosen record B

(P) COC1CN([C@H]2C[C@@H](CO[C@H]3CC[C@H](C(=O)O)CC3)N(C(=O)Cc3cc(Cl)c(NC(=O)c4csc5ccccc45)cc3F)C2)C1 (relative stereo)
(Q) CCOC1CN([C@H]2C[C@@H](CO[C@H]3CC[C@H](C(=O)O)CC3)N(C(=O)Cc3cc(Cl)c(NC(=O)c4cn(C)c5ccccc45)cc3Cl)C2)C1
(R) COC1CN([C@H]2C[C@@H](CO[C@H]3CC[C@H](C(=O)O)CC3)N(C(=O)Cc3cc(Cl)c(NC(=O)c4csc5ccccc45)cc3Cl)C2)C1 (relative stereo)
Sort these compounds on IC50 so the largest reading comes first. // ordering of labels required in reply Q, R, P

Data provenance: patent US8129366B2
